# Test system: Tomato
# assay.protocol: Whole plant screen for plant growth regulator activity, tomato (TO)
# Assay type: in vivo, Tomato (Ailsa Craig)
# assay.conditions: 4000 ppm (4 kg/ha), visual score after 2-6 weeks
# Source text: The plant species used in this screen are presented in Table II with the leaf stage at which they were sprayed. Each chemical was applied at 4000 ppm (4 kg/ha in a 1000 l/ha field volume) using a tracksprayer and a SS8004E (Teejet) nozzle. […] After 2-6 weeks in the glasshouse, depending on the time of year, the plants were visually assessed for morphological characteristics. […]

# compound, R = Retardation
data = [
    ("CCC/C=C\\C(O)(c1cncnc1)C(C)C (centres unmarked)", "1 (10-30%)"),
    ("CCCC#CC(O)(c1cncnc1)C(C)(C)C (centres unmarked)", "3 (61-100%)"),
    ("CC(C)CCCC(O)(c1cncnc1)C(C)(C)C (centres unmarked)", "1 (10-30%)"),
    ("CCC(C)C#CC(O)(c1cncnc1)C(C)C (centres unmarked)", "2 (31-60%)"),
    ("CC(C)(C)/C=C/C(O)(c1cncnc1)C(C)(C)CF (centres unmarked)", "2 (31-60%)"),
    ("CCCCCCC#CC(O)(c1cncnc1)C(C)(C)C (centres unmarked)", "2 (31-60%)"),
    ("CC(C)(C)C(O)(C#CCCCl)c1cncnc1 (centres unmarked)", "2 (31-60%)"),
    ("CCCCCCC(O)(c1cncnc1)C(C)(C)C (centres unmarked)", "2 (31-60%)"),
    ("CC(C)C(O)(CC1CCCC1)c1cncnc1 (centres unmarked)", "2 (31-60%)"),
    ("CCCCCC#CC(O)(c1cncnc1)C(C)(C)C (centres unmarked)", "2 (31-60%)"),
    ("CC(C)CCC(O)(c1cncnc1)C(C)C (centres unmarked)", "2 (31-60%)"),
    ("CCCCCCC#CC(O)(c1cncnc1)C(C)C (centres unmarked)", "1 (10-30%)"),
    ("CCCCCCCC(O)(c1cncnc1)C(C)C (centres unmarked)", "2 (31-60%)"),
    ("CC(C)CC#CC(O)(c1cncnc1)C(C)(C)C (centres unmarked)", "3 (61-100%)"),
    ("CCC(C)CCC(O)(c1cncnc1)C(C)C (centres unmarked)", "2 (31-60%)"),
    ("CC(C)C#CC(O)(c1cncnc1)C(C)C (centres unmarked)", "1 (10-30%)"),
    ("CC(C)C(O)(C#CCCCCl)c1cncnc1 (centres unmarked)", "3 (61-100%)"),
    ("CCCCCC(O)(c1cncnc1)C(C)(C)C (centres unmarked)", "2 (31-60%)"),
    ("CC(C)CCC(O)(c1cncnc1)C(C)(C)C (centres unmarked)", "2 (31-60%)"),
    ("CC(C)(C)/C=C/C(O)(c1cncnc1)C1(C)CC1 (centres unmarked)", "2 (31-60%)"),
    ("CC(C)C#CC(O)(c1cncnc1)C(C)(C)C (centres unmarked)", "3 (61-100%)"),
    ("CC(C)(C)/C=C/C(O)(c1cncnc1)C(C)(C)C (centres unmarked)", "3 (61-100%)"),
    ("CCC(Cl)CC#CC(O)(c1cncnc1)C(C)(C)C (centres unmarked)", "3 (61-100%)"),
    ("CC(C)CCCC(O)(c1cncnc1)C(C)C (centres unmarked)", "3 (61-100%)"),
    ("CC(C)(C)C(O)(C#CCCCCl)c1cncnc1 (centres unmarked)", "2 (31-60%)"),
    ("CCC(C)CCCC(O)(c1cncnc1)C(C)C (centres unmarked)", "2 (31-60%)"),
]

* * *

Form field: R = Retardation (one value per entry).
# System: Wheat
# assay.protocol: Whole plant screen for plant growth regulator activity, wheat (WW)
# Format: in vivo, Wheat (Timmo)
# assay.conditions: WW, 4000 ppm (4 kg/ha), visual score after 2-6 weeks

# compound, study.system, R = Retardation
measured = [
    ("CC(C)(C)C(O)(C#CCCCCCl)c1cncnc1 (stereo not drawn) [Compound 37]", "Wheat", "2 (31-60%)"),
    ("CC(C)CCCC(O)(c1cncnc1)C(C)C (stereo not drawn) [Compound 7]", "Wheat", "3 (61-100%)"),
    ("CCC(Cl)CC#CC(O)(c1cncnc1)C(C)(C)C (stereo not drawn) [Compound 38]", "Wheat", "2 (31-60%)"),
    ("CCC(C)CCCC(O)(c1cncnc1)C(C)C (stereo not drawn) [Compound 21]", "Wheat", "2 (31-60%)"),
    ("CC(C)(C)/C=C/C(O)(c1cncnc1)C(C)(C)C (stereo not drawn) [Compound 39]", "Wheat", "3 (61-100%)"),
    ("CC(C)C(O)(CC1CCCC1)c1cncnc1 (stereo not drawn) [Compound 27]", "Wheat", "2 (31-60%)"),
]

* * *

# System: Erysiphe graminis
# assay.protocol: Foliar fungal disease control, Erysiphe graminis (barley)
# Assay type: in vivo
# assay.conditions: 100 ppm spray plus root drench (approximately 40 ppm a.i/dry soil); inoculated 24 hours before treatment
Reported disease control, ERYSIPHE GRAMINIS (BARLEY) values are given for each entry in this list.
measure.name: disease control, ERYSIPHE GRAMINIS (BARLEY)

# molecule, study.system, reading
measured = [
    ("CC(C)(C)C(O)(C#CCCCCl)c1cncnc1 (centres unmarked) [Compound 19]", "Erysiphe graminis", 4),
    ("CC(C)CC#CC(O)(c1cncnc1)C(C)(C)C (centres unmarked) [Compound 16]", "Erysiphe graminis", 4),
    ("CC(C)CCCC(O)(c1cncnc1)C(C)C (centres unmarked) [Compound 7]", "Erysiphe graminis", 4),
    ("CCCCC#CC(O)(c1cncnc1)C(C)C (centres unmarked) [Compound 1]", "Erysiphe graminis", 4),
    ("CC(C)(C)/C=C/C(O)(c1cncnc1)C1(C)CC1 (centres unmarked) [Compound 55]", "Erysiphe graminis", 4),
]

* * *

# Tested on: Barley
# assay.protocol: Whole plant screen for plant growth regulator activity, barley (BR)
# Type: in vivo, Barley (Atem)
# assay.conditions: BR, 4000 ppm (4 kg/ha), visual score after 2-6 weeks; * = decrease in tillering
Entries annotated with measured T = Tillering or side shooting

# compound, T = Tillering or side shooting
records = [
    ("CC(C)(C)/C=C/C(O)(c1cncnc1)C(C)(C)C (centres unmarked) [Compound 39]", "3 (61-100%)"),
    ("CCCCC(O)(c1cncnc1)C(C)(C)C (centres unmarked) [Compound 35]", "3 (61-100%)"),
    ("CC(C)CCCC(O)(c1cncnc1)C(C)(C)C (centres unmarked) [Compound 17]", "2 (31-60%)"),
    ("CC(C)(C)C(O)(C#CCCCCCl)c1cncnc1 (centres unmarked) [Compound 37]", "3 (61-100%)"),
    ("CCCCC#CC(O)(c1cncnc1)C(C)(C)C (centres unmarked) [Compound 31]", "1 (10-30%)"),
    ("CC(C)CC#CC(O)(c1cncnc1)C1CC1 (centres unmarked) [Compound 56]", "3 (61-100%)"),
    ("CC(C)C(O)(CC1CCCC1)c1cncnc1 (centres unmarked) [Compound 27]", "2*"),
    ("CC(C)C(O)(C#CC(C)(C)C)c1cncnc1 (centres unmarked) [Compound 10]", "2 (31-60%)"),
    ("CC(C)(C)C(O)(C#CCCCCl)c1cncnc1 (centres unmarked) [Compound 19]", "3 (61-100%)"),
    ("CCCCCCC(O)(c1cncnc1)C(C)(C)C (centres unmarked) [Compound 30]", "2 (31-60%)"),
    ("CC(C)C#CC(O)(c1cncnc1)C(C)C (centres unmarked) [Compound 9]", "2 (31-60%)"),
    ("CCC/C=C\\C(O)(c1cncnc1)C(C)C (centres unmarked) [Compound 25]", "1*"),
    ("CCCCCC#CC(O)(c1cncnc1)C(C)C (centres unmarked) [Compound 23]", "1 (10-30%)"),
    ("CC(C)CCCC(O)(c1cncnc1)C(C)C (centres unmarked) [Compound 7]", "1 (10-30%)"),
    ("CCCC#CC(O)(c1cncnc1)C(C)C (centres unmarked) [Compound 2]", "3 (61-100%)"),
    ("CC(C)(C)C(O)(C#CCCCl)c1cncnc1 (centres unmarked) [Compound 36]", "3 (61-100%)"),
    ("CC(C)(C)/C=C/C(O)(c1cncnc1)C(C)(C)CF (centres unmarked) [Compound 49]", "3 (61-100%)"),
    ("CCCCCCC#CC(O)(c1cncnc1)C(C)(C)C (centres unmarked) [Compound 33]", "2 (31-60%)"),
    ("CCC(Cl)CC#CC(O)(c1cncnc1)C(C)(C)C (centres unmarked) [Compound 38]", "3 (61-100%)"),
    ("CCCCC#CC(O)(c1cncnc1)C(C)C (centres unmarked) [Compound 1]", "1 (10-30%)"),
    ("CCC(C)C#CC(O)(c1cncnc1)C(C)C (centres unmarked) [Compound 5]", "3 (61-100%)"),
    ("CC(C)C(O)(C#CCCCCl)c1cncnc1 (centres unmarked) [Compound 8]", "1 (10-30%)"),
    ("CCCCCCCC(O)(c1cncnc1)C(C)C (centres unmarked) [Compound 26]", "2 (31-60%)"),
]

Origin of values: patent US4875922A
